Just for reference, PubChem BioAssay (NCI) is where these values come from.

assay notes: NCI Yeast Anticancer Drug Screen. Data for the mlh1 rad18 strain (AID 175)
setup conditions: S. cerevisiae mlh1 rad18 strain growth inhibition; at 50.0 µM; hits give high values
Compounds without any hit were thinned out: in the full panel of roughly 79,000, 15% have a hit.
endpoint label: growth inhibition (%)

compound | scale unit | result number
c1ccc2cc3c(ccc4cccc[n+]43)cc2c1 | % | 29.9
O=C1C(=O)c2cc(Br)cc([N+](=O)[O-])c2-c2ccc(Br)cc21 | % | 98.4
CCCCCCCCC1OC1CCCCCCCC(=O)OCC1CO1 (stereo not given) | % | -40.8
CC(=O)NC1=C(Sc2ccc(C)cc2)C(=O)c2ccccc2C1=O | % | 23.1
CCOC(=O)c1[nH]c(Br)c(-c2ccc(OC)c(OC)c2)c1Br | % | 94.2
O=C(O)CSc1ccc(N=C=S)cc1 | % | -2.35
O=C(NNc1ncccn1)c1ccc(C(=O)NNc2ncccn2)cc1 | % | 21.4
CC1(C)CCC[C@@]2(C)C1CC[C@@]1(CO1)[C@@H]2/C=C\C(C=O)CC=O (stereo not given in full) | % | -27.4
Cc1c(-c2ccccc2)ccnc1/C=N/NC(=S)Nc1ccccc1 | % | 93.8
O=C(CCc1c[nH]c2ccccc12)c1ccccc1O | % | 43.4

* * *

assay notes: NCI Yeast Anticancer Drug Screen. Data for the rad50 strain (AID 155);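 further: 0% = growth of vehicle-only cultures of the same strain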
setup conditions: S. cerevisiae rad50 strain growth inhibition; at 50.0 µM (retest, dose inferred, filed as 5.0)
About 79,000 compounds went through this panel and 15% of them were active in at least one assay; those are over-represented in the sample as a whole. Active and inactive are the calls of the source. Rule as the data show it: active = growth inhibition above about 70%; inactive = the rest.
Outcomes: active, inactive

compound | classification
O=C(CSc1nnc(-c2ccc(N=Cc3ccc(Cl)cc3)cc2)o1)Nc1ccccc1Cl | inactive
Cc1ccc(SC2C(=O)C3(C)CCC2C3(C)C)cc1 (centres undefined) | inactive
O=C1c2ccccc2C(=O)N1CCn1ccc(NC(c2ccccc2)(c2ccccc2)c2ccccc2)nc1=O | inactive
Cc1ccc(S(=O)(=O)CC2(Br)Cc3ccccc3C2=O)cc1 (centres undefined) | active
Cn1c(=O)nc2n(-c3ccc(Cl)cc3)c3cc(Cl)ccc3nc-2c1=O | inactive
CCCC/C=C1\CCC(CN2CCCCC2)C1=O (centres undefined) | active
Oc1c(Cl)c(Cl)c2ncccc2c1Cl | inactive
NS(=O)(=O)c1ccc(N=Cc2c3ccccc3nc3cc(Cl)ccc23)cc1 | inactive
CN(c1ccccc1)N(C)c1ccccc1 | inactive
CCOP(=O)(OCC)C(=C1C=C(C(C)(C)C)C(=O)C(C(C)(C)C)=C1)P(=O)(OCC)OCC | active
OB1c2ccccc2CCc2ccccc21 | active
O=C1CSC(=S)N1c1ccc(I)cc1 | inactive
COc1ccc(OC)c(/C=C/c2ccnc3ccccc23)c1 | active
CCCCCCCCC(N)CCCCCCCC | active
O=C(CCCCCCCCCCc1ccccc1)c1c(O)cccc1O | active
COc1ccc(Cc2cncc3c(O)c(OC)ccc23)cc1O | inactive
O=C(O)c1cc(-c2ccc3c(c2)Nc2ccccc2S3)nc2ccc(F)cc12 | active
O=C1Nc2ccc([N+](=O)[O-])c3c([N+](=O)[O-])ccc1c23 | active
OCc1cc2c([nH]c3ccccc32)c(C(O)CO)n1 (centres undefined) | inactive
NC(=S)SCCC(=O)O | inactive
S=c1[nH]c2ccc(Br)cc2c(=S)n1-c1ccccc1 | inactive
CN(Nc1ccc(Cl)cc1)c1ccc(Cl)cc1 | active
COc1cc([C@@H]2c3cc4c(cc3[C@@H](OC3OC5CO[C@@H](c6cccs6)OC5C(O)C3O)[C@H]3COC(=O)[C@H]23)OCO4)cc(OC)c1O (some centres undefined) | active
CC(=O)Oc1ccc(N2C(=O)C=CC2=O)cc1 | active
O=C1CCS(=O)(=O)c2ccccc21 | active
CC1NC(=O)OC1(C)c1ccccc1 (centres undefined) | inactive
CCN(CC)c1ccc(/C=C2/C[N+](C)(C)C/C(=C/c3ccc(N(CC)CC)cc3)C2=O)cc1 | active
COc1cccc(C2CC(C)(O)Oc3cc4c(cc32)OCO4)c1 (centres undefined) | inactive
CCc1nc(N)nc(N)c1-c1ccc(N2CCCCC2)c([N+](=O)[O-])c1 | inactive

* * *

assay notes: NCI Yeast Anticancer Drug Screen. Data for the mlh1 rad18 strain (AID 175)
setup conditions: S. cerevisiae mlh1 rad18 strain growth inhibition; at 50.0 µM
This is part of a sample that, as a whole, favours compounds with a hit. Of some 79,000 tested, about 15% had one in any assay. Active and inactive are the calls of the source. No stated cut-off is given here; in the data, active means growth inhibition above about 70%; inactive means the rest.
Outcomes: Y (active), N (inactive)

molecule | classification
CCSC(=S)NC(=O)c1ccccc1 | N
OCC(O)C(O)C(/C=N/Nc1ccccc1)=N/Nc1ccccc1 (stereo not drawn) | N
O=C1c2cc([N+](=O)[O-])ccc2-c2cc([N+](=O)[O-])ccc21 | Y
CCC[CH2][Sn]([CH2]CCC)([O]C(=O)c1ccc(C)c(N)c1)[O]C(=O)c1ccc(C)c(N)c1 | Y
C1=CC2OC1c1cc3ccccc3cc12 | Y
CN(/N=C\c1ccc(Cl)cc1)C(c1ccc(Cl)cc1)N(C)/N=C/c1ccc(Cl)cc1 (stereo not drawn) | N
COc1cc2c(oc(=O)c3cc(C)cc(OC)c32)c2c(C3OC(C)C(O)C(C)(O)C3O)ccc(O)c12 (stereo not drawn) | Y
CC(C)c1cccc2sc(NC(=O)C(=O)C(C#N)c3cccc4ccccc34)nc12 (stereo not drawn) | N

* * *

assay notes: NCI Yeast Anticancer Drug Screen. Data for the mec2-1 strain (AID 157)
setup conditions: S. cerevisiae mec2-1 strain, at 50.0 µM (retest, dose inferred, filed as 5.0), hits give high values
Protocol: Growth inhibition of yeast strains with defined genetic alterations is measured as a screen for potential anti-cancer activity. Selected strains with alterations in DNA damage repair or cell cycle control were exposed to compounds and growth inhibition was measured relative to vehicle treated controls. The strain used in this assay is mec2-1
About 79,000 compounds went through this panel and 15% of them were active in at least one assay; those are over-represented in the sample as a whole.
Each record here notes measured growth inhibition.

structure notation | scale unit | growth inhibition
COc1ccc(C2N(Cc3ccc(Cl)cc3)CCN2Cc2ccc(Cl)cc2)cc1 | % | 59
NNC(=O)C(=O)N/N=C(/CCC(=O)NCCc1ccccc1)CC(=O)c1ccccc1 | % | 2
ClCc1ccc2ccc3ccc(CCl)nc3c2n1 | % | 93

* * *

assay notes: NCI Yeast Anticancer Drug Screen. Data for the sgs1 mgt1 strain (AID 161);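 further: 0% = growth of cultures given vehicle only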
setup conditions: S. cerevisiae sgs1 mgt1 strain, at 50.0 µM (retest, dose inferred, filed as 5.0), hits give high values
This is part of a sample that, as a whole, favours compounds with a hit. Of some 79,000 tested, about 15% had one in any assay.
Assign class by growth inhibition: not lower than 90% means Yes; lower than 90% means No.

molecule | classification
COc1ccc(NC(=O)CSC(N)=O)cc1 | No
CCC(C)NC(=S)N/N=C(\C)c1ccccn1 (configuration not stated) | Yes
O=c1oc2ccccc2c(O)c1/C=N\c1nc(-c2ccccc2)cs1 | Yes
Nc1ccc(-c2ccc(N)cc2S(=O)(=O)O)c(S(=O)(=O)O)c1 | No
CC1c2cc(c3c(c2O)CN([C@@H](C)C2CCCCC2)CO3)C(C)c2cc(c3c(c2O)CN([C@@H](C)C2CCCCC2)CO3)C(C)c2cc(c3c(c2O)CN([C@@H](C)C2CCCCC2)CO3)C(C)c2cc1c1c(c2O)CN([C@@H](C)C2CCCCC2)CO1 (some centres not stated) | No
CSc1nc(SC)c2cn(Cc3ccccc3)nc2n1 | Yes
OC(C/C=N/Nc1ccccc1)(C(F)(F)Cl)C(F)(F)Cl | Yes
CC(=O)Oc1ccc(N2C(=O)C=CC2=O)cc1 | Yes
Cc1cn(C2OC(CO)C(O)C(O)C2N)c(=O)[nH]c1=O (configuration not stated) | No
NC(=Nc1ccccc1)c1ccc2c(c1)c1c(n2Cc2ccccc2)CCCC1 | Yes
N#CC(Cl)CS(=O)(=O)c1ccccc1 (configuration not stated) | Yes
O=C(O)c1cccc(N=Nc2c(S(=O)(=O)O)ccc3c2C(=O)c2ccccc2C3=O)c1O | No
O=C(O)c1cc(Br)ccc1OCc1ccc(Cl)cc1 | No
c1ccc(N=c2sc3ccccc3sc2=Nc2ccccc2)cc1 | No
CC(C)OC(=O)CCCCCC1CCCCC1 | No
S=C(N/N=C/c1ccco1)NC12CC3CC(CC(C3)C1)C2 | Yes
Oc1c(Br)ccc2cccnc12 | Yes
COc1ccc(C2=C(Cl)C(=O)N(c3ccc(O)cc3)C(=O)C2(Cl)Cl)cc1 | Yes
CN1C(=O)c2cccc3c([N+](=O)[O-])ccc(c23)C1=O | No
COC12C(COC(N)=O)C3=C(C(=O)C(C)=C(N)C3=O)N1CC1C2N1C(=O)/C=C/c1ccccc1 (configuration not stated) | No
CCN(CC)c1c(C(=O)/C=C/c2ccc(OC)cc2)c(-c2ccccc2)nn(C)c1=O | No
